These entries and their values trace back to ChEMBL document CHEMBL2406917.

assay: Total antioxidant capacity of the compound at 100 uM relative to control; assay type: physicochemical

[
  {
    "compound": "O=C(O)CCC(c1c(O)cc(/C=C/c2ccc(O)c(O)c2)oc1=O)c1c(O)cc(/C=C/c2ccc(O)c(O)c2)oc1=O",
    "TAC": "9.74 U"
  },
  {
    "compound": "O=C1CC(c2c(O)cc(/C=C/c3ccc(O)c(O)c3)oc2=O)CN1 (stereo not drawn)",
    "TAC": "4.24 U"
  },
  {
    "compound": "CC(C)CC(c1c(O)cc(/C=C/c2ccc(O)c(O)c2)oc1=O)c1c(O)cc(/C=C/c2ccc(O)c(O)c2)oc1=O",
    "TAC": "7.6 U"
  },
  {
    "compound": "CC(C)C(c1c(O)cc(/C=C/c2ccc(O)c(O)c2)oc1=O)c1c(O)cc(/C=C/c2ccc(O)c(O)c2)oc1=O",
    "TAC": "4.8 U"
  },
  {
    "compound": "CC(c1c(O)cc(/C=C/c2ccc(O)c(O)c2)oc1=O)c1c(O)cc(/C=C/c2ccc(O)c(O)c2)oc1=O [PINILLIDINE]",
    "TAC": "3.46 U"
  },
  {
    "compound": "O=c1cc(O)cc(/C=C/c2ccc(O)c(O)c2)o1 [HISPIDIN]",
    "TAC": "10.03 U"
  },
  {
    "compound": "COC(=O)CCC(c1c(O)cc(/C=C/c2ccc(O)c(O)c2)oc1=O)c1c(O)cc(/C=C/c2ccc(O)c(O)c2)oc1=O",
    "TAC": "6.5 U"
  },
  {
    "compound": "O=C1O[C@H]([C@@H](O)CO)C(O)=C1O [ASCORBIC ACID]",
    "TAC": "18.97 U"
  }
]
